# credit: ChEMBL document CHEMBL5036363

assay: Microsomal stability in mouse liver microsomes assessed as half life at 10 uM measured upto 60 mins by LC-MS/MS analysis; format: ADME, Microsome; conditions: microsomes, 1 h, 10 µM
Readout Name: t1/2 (min)
Give just the numeric value; min need not be written.

Reference set (3 entries):
In [3]: df
Out[3]:
                                 cpd_smiles  endpoint_result
0  CCC(CC)S(=O)(=O)c1ccc(S(=O)(=O)N2CCC[C@@H](C(=O)N3CCN(c4nc(C(C)C)no4)CC3)C2)cc1             7.77
1  CCN(CC)S(=O)(=O)c1ccc(S(=O)(=O)N2CCC[C@@H](C(=O)N3CCN(c4nc(C(C)C)no4)CC3)C2)cc1              7.7
2  CC(C)NS(=O)(=O)c1ccc(S(=O)(=O)N2CCC[C@@H](C(=O)N3CCN(c4nc(C(C)C)no4)CC3)C2)cc1            29.36

Please examine the following record next.
Challenge: Fill in reported t1/2 for this entry: `CCN(CC)C(=O)c1ccc(S(=O)(=O)N2CCC[C@@H](C(=O)N3CCN(c4nc(C(C)C)no4)CC3)C2)cc1`
Response given: 10.47
